Measured pIC50 by item
# Tested on: CEM cells HIV-1 protection, formazan growth assay
# ASSAY_INFO: NCI AIDS Antiviral Assay
# ASSAY_CONTEXT: measured here: growth of uninfected CEM cells
pIC50: −log10 of the molar value.

Check out these entries, answers already filled in.
>  <COMPOUND>
CC(=O)OCC1OC(n2c(C)c(C)c(C)c(C#N)c2=S)C(OC(C)=O)C(OC(C)=O)C1OC(C)=O (stereo not given)

>  <VALUE_OBSERVED>
< 3.70

$$$$
>  <COMPOUND>
Cc1cccc(N2CCN(S(=O)(=O)c3ccc(Cl)cc3)C2=N)c1C

>  <VALUE_OBSERVED>
< 3.70

$$$$

q: # query: pIC50 | item CCNC(=O)Cc1nc2c(=O)[nH]cnc2n1C1OC(CO)C(O)C1O (stereo not given) | system: CEM cells HIV-1 protection, formazan growth assay
a: < 3.70

q: # query: pIC50 | item O=C1NC2C(=O)N(Cc3ccccc3)C(=O)C2N1 (stereo not given) | system: CEM cells HIV-1 protection, formazan growth assay
a: < 4.53

q: # query: pIC50 | item `Cc1cc2occ(/C=C\C3=C(C#N)C(=O)OC(C)(C)C3)c(=O)c2cc1C` | system: CEM cells HIV-1 protection, formazan growth assay
a: < 5.11
